The measured values listed here are drawn from paper PMC10050424.

# system: PfENT1 mutant W53A (Plasmodium falciparum, UniProt Q8IDM6, W53A)
# Construct: 10xHis (N); made in house; host or cells: Sf9 insect cells (baculovirus)
# Sequence (Q8IDM6 whole entry W53A): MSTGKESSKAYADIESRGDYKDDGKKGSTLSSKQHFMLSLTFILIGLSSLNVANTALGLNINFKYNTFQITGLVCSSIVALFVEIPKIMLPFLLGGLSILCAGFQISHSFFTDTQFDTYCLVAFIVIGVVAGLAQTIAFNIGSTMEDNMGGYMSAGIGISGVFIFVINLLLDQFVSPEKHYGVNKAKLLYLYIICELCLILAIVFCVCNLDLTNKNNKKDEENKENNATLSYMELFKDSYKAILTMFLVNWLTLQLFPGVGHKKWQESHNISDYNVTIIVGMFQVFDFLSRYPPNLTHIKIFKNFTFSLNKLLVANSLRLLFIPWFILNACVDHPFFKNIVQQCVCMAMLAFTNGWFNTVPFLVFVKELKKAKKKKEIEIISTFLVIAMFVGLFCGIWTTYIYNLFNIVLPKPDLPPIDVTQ
# test_details: ITC binding to PfENT1 mutant W53A
# condition_parameters: Kd, Mean and Mean ± SD, source data Figure 3c, construct W53A
value_kind: Kd

- OC[C@H]1O[C@@H](n2cnc3c(O)ncnc32)[C@H](O)[C@@H]1O: 1830 µM

* * *

# system: PfENT1WT (Plasmodium falciparum, UniProt Q8IDM6)
# Construct: 10xHis (N); made in house; host or cells: Sf9 insect cells (baculovirus)
# Sequence (Q8IDM6 whole entry): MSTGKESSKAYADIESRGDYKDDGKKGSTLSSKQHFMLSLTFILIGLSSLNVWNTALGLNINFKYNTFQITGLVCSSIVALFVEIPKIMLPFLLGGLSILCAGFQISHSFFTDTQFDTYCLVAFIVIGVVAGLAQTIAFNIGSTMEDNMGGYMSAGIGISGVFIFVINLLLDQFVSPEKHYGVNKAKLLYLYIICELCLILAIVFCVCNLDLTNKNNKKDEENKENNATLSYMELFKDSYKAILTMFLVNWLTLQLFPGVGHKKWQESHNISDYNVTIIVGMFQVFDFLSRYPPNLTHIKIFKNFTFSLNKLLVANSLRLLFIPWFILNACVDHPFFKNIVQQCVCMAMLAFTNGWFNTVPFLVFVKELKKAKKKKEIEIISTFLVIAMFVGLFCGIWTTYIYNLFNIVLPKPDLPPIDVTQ
# test_details: biochemical
# Assay type: binding
# condition_parameters: binding affinity (Kd), ITC, 25 °C, pH 6.0; mean ± SD (n = 3); Fig. 1a and text
value_kind: Kd (µM)

• OC[C@H]1O[C@@H](n2cnc3c(O)ncnc32)[C@H](O)[C@@H]1O = 64.7
